Assayed system: Beta-3 adrenergic receptor (Homo sapiens, UniProt P13945)
Sequence (P13945 whole entry): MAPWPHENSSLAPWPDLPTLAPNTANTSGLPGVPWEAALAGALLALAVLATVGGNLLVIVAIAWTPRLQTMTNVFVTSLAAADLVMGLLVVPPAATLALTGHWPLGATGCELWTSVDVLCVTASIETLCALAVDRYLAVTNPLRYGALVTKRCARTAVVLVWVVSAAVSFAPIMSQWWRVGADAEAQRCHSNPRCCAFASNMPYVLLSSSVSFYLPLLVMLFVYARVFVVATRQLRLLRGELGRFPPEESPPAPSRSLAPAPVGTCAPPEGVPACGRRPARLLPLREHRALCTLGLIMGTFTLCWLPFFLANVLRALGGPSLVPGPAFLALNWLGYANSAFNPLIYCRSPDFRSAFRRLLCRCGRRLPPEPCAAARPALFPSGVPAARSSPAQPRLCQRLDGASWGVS
Protocol description: Agonist efficacy for human Beta-3 adrenergic receptor expressed in chinese hamster ovary cells
Format: functional, cell-based
pEC50: −log10 of the molar value.
Endpoint name: pEC50

> print(dat)
                                   molecule  reported.measurement
1  CCCCCCP(=O)(O)COc1ccc(CCNC[C@H](O)COc2ccc(O)c3c2CCC(=O)N3)cc1                  6.54
2  COc1ccc(CCNC[C@@H](O)COc2ccc(O)c3c2CCC(=O)N3)cc1                  6.25
3    COc1ccc(CCNC[C@@H](O)COc2cccc(O)c2)cc1                  5.70
4  COc1ccc(CCNC[C@@H](O)COc2ccc(O)c(CO)c2)cc1                  5.33
5  C[C@H](Cc1ccc(OCP(=O)(O)c2ccccc2)cc1)NC[C@H](O)COc1ccc(O)c(NS(C)(=O)=O)c1                  6.92
6  COc1ccc(CCNC[C@@H](O)COc2ccc(F)c(O)c2)cc1                  5.96

I = COc1ccc(CCNC[C@@H](O)COc2ccc(O)c(F)c2)cc1
II = COc1ccc(CCNC[C@@H](O)COc2ccc(O)c(NS(C)(=O)=O)c2)cc1
III = CC(C)(C)NCC(O)COc1cccc2[nH]c(=O)[nH]c12 (configuration not stated) [CGP-12177]
IV = COc1ccc(CCNC[C@@H](O)COc2ccc(O)cc2)cc1
QUERY: Arrange these molecules by their pEC50, starting with the largest number. Rank the items, then write their labels in that order.
RESULT: II, IV, III, I

P = COc1ccc(CCNC[C@@H](O)COc2ccc(O)c(O)c2)cc1
Q = COc1ccc(CCNC[C@@H](O)COc2cccc3[nH]c(=O)[nH]c23)cc1
QUERY: Sort P and Q by pEC50 descending and give the first. Mark your selection by writing its label.
RESULT: P
(P: 6.09, Q: 5.66)
